Reported % Inhibition at 1 μM at Melanocortin Receptor 1 values for the following substances.
- Test System: MC1-R (Mus musculus, UniProt Q01727)
- Construct: membranes prepared from hMC3-R, hMC4-R, hMC5-R, and B-16 mouse melanoma cells (containing MC1-R); endogenous in cells; host or cells: B-16 mouse melanoma cells (membranes)
- Sequence (Q01727 whole entry): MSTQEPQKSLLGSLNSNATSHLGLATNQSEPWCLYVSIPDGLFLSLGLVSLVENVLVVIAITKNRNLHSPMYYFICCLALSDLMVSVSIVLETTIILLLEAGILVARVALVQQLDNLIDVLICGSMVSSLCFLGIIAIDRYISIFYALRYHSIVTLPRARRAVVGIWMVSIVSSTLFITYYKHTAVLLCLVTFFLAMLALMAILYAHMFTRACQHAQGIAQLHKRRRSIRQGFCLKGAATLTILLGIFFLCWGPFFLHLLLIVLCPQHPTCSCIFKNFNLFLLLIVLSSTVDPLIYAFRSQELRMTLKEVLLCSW
- Assay Comment: competitive inhibition binding assay, 125I-NDP-alpha-MSH, B-16 mouse melanoma cell membranes
- Recorded Conditions: 1 μM test peptide; 0.4 nM 125I-NDP-alpha-MSH; B-16 mouse melanoma cell membranes
Square brackets hold non-standard residues; d marks the D form. Ends that are not written are not given here. Nle = CCCC[C@H](N)C(=O)O
Phrase the answer as number then unit, nothing more needed.

Examples with answers:
Tyr-Val-Nle-Gly-His-D-Phe-Arg-Cys-Trp-Asp-Arg-Phe-NH2 (YV[Nle]GH[dF]RCWDRF-NH2; also: Re complex) [3-5]    83%
Tyr-Val-Nle-Gly-His-Cys-Arg-Trp-Asp-Arg-Phe-NH2 (YV[Nle]GHCRWDRF-NH2; numbers in words are those of the source; also: oxorhenium(V) N3S1 chelate (Re=O) with Cys) [5-6]    74%
Ac-Ser-Tyr-Ser-Nle-Glu-His-Phe-Arg-Trp-Gly-Lys-Gly-Val-D-Cys-NH2 (EHFRWGKGV; not fully specified; Ac-Ser-Tyr-Ser-Nle N-term; D-Cys; amide; printed: Glu-His-Phe-Arg-Trp-Gly-Lys-Gly-Val-) [2-1]    97%
Tyr-Val-Nle-Gly-His-D-Phe-Arg-Trp-Cys-Asp-Arg-Phe-NH2 (YV[Nle]GH[dF]RWCDRF-NH2; also: Re complex) [3-4]    98%

The reported value for Ac-Ser-Tyr-Ser-Nle-Glu-His-D-Cys-Phe-Arg-Trp-Gly-Lys-Pro-Val-NH2 (CFRWGKPV; Ac-Ser-Tyr-Ser-Nle-Glu-His N-term; D-residue; amide; printed: Cys-Phe-Arg-Trp-Gly-Lys-Pro-Val-) [2-8] in terms of % Inhibition at 1 μM at Melanocortin Receptor 1 is 69%

The reported value for Tyr-Val-Nle-Gly-His-Phe-Arg-Trp-Asp-Cys-Arg-Phe-NH2 (YV[Nle]GHFRWDCRF-NH2; numbers in words are those of the source; also: oxorhenium(V) N3S1 chelate (Re=O) with Cys) [4-3] in terms of % Inhibition at 1 μM at Melanocortin Receptor 1 is 44%

The reported value for Ac-Ser-Tyr-Cys-Ser-Nle-Glu-His-Phe-Arg-Trp-Gly-Lys-Pro-Val-NH2 (chain 1 Ac-SYCS[Nle]; chain 2 EHFRWGKPV-NH2; not fully specified (bridges); printed as Ac-Ser-Tyr-Cys-Ser-Nle-Glu-His-Phe-Arg-Trp-Gly-Lys-Pro-Val-NH2; also: oxorhenium(V) N3S1 chelate (Re(V)=O)) [1-12] in terms of % Inhibition at 1 μM at Melanocortin Receptor 1 is 96%

The reported value for Tyr-Val-Nle-Gly-His-Phe-Arg-Trp-Asp-Arg-Cys-Phe-NH2 (YV[Nle]GHFRWDRCF-NH2; numbers in words are those of the source; also: oxorhenium(V) N3S1 chelate (Re=O) with Cys) [4-2] in terms of % Inhibition at 1 μM at Melanocortin Receptor 1 is 75%

The reported value for Ac-Ser-Tyr-Ser-Nle-D-Cys-Glu-His-Phe-Arg-Trp-Gly-Lys-Pro-Val-NH2 (Ac-SYS[Nle][dC]EHFRWGKPV-NH2; numbers in words are those of the source; also: oxorhenium(V) N3S1 chelate via Cys (Re(V)=O)) [2-10] in terms of % Inhibition at 1 μM at Melanocortin Receptor 1 is 65%

Taken from patent US7351690B2.
